Entry source: patent US7071177B2

Measurement Kind: melting point

> print(dat)
                              sample.smiles     observed.value
1  Cc1ccc(CN(CCS(C)(=O)=O)c2ccc(S(N)(=O)=O)cc2)cc1    169.1 to 170 °C
2  COc1ccc(CNS(=O)(=O)c2ccc(N(CCS(C)(=O)=O)Cc3ccc(C)cc3)cc2)cc1    85.7 to 86.6 °C
3  CCOc1ccc(CN(CCS(C)(=O)=O)c2ccc(S(C)(=O)=O)c(F)c2)cc1        56 to 59 °C
4  CS(=O)(=O)CCN(Cc1ccccn1)c1ccc(S(C)(=O)=O)cc1  139.5 to 140.5 °C
5  CS(=O)(=O)CCN(Cc1ccc(F)cc1F)c1ccc(S(N)(=O)=O)cc1  152.9 to 153.2 °C
